Target: T1, recombinant human PLVAP51-442 protein (extracellular domain, His tag removed by thrombin) (human, UniProt Q9BX97 51-442)
T1 construct: also called recombinant PLVAP protein; recombinant PLVAP
T1 sequence: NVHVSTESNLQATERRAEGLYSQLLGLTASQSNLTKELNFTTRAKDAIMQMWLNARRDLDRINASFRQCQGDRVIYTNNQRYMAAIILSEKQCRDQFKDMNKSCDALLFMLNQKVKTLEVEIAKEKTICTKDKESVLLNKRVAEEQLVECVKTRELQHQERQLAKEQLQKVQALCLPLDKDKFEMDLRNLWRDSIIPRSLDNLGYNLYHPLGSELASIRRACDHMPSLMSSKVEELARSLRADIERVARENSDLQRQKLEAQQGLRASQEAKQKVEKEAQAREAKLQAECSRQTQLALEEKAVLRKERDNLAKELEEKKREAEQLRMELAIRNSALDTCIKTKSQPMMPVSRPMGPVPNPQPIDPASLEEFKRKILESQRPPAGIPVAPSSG
Experiment: competition ELISA on coated recombinant PLVAP; competitor biotinylated murine KFCC-GY4
Overview of recorded IC50 (ratio compared to GY4 mAb) for various binders
Answer field: number only, no words.

Ask | Recorded IC50 (ratio compared to GY4 mAb) for humanized KFCC-GY4 antibody CSR01-VH5/VK3 (antibody, human IgG4, V domains shown, also called VH5/VK3 (GY4 variant); VH5/VK3 IgG4) VH: EVQLVQSGAEVKKPGASVKVSCTASGFNIKDYYIHWVRQAPGQGLEWIGWIDPENGDIEYAPKFQGRATITADTSTDTAYMELSSLRSEDTAVYYCLYQEGSWGQGTTVTVSS VL: DVVMTQSPLSLPVTLGQPASISCKSSQSLLNSDGKTYLNWLQQRPGQSPRRLIYLVSKLDSGVPDRFSGSGSGTDFTLKISRVEAEDVGVYYCWQGTHFPFTFGGGTKVEIKR , please?
Reply | 1.55

Ask | Recorded IC50 (ratio compared to GY4 mAb) for humanized KFCC-GY4 antibody CSR01-VH5/VK2 (antibody, human IgG4, V domains shown, also called VH5/VK2 (GY4 variant); CSR01-VH5NK2) VH: EVQLVQSGAEVKKPGASVKVSCTASGFNIKDYYIHWVRQAPGQGLEWIGWIDPENGDIEYAPKFQGRATITADTSTDTAYMELSSLRSEDTAVYYCLYQEGSWGQGTTVTVSS VL: DVVMTQSPLSLPVTLGQPASISCKSSQSLLNSDGKTYLNWLQQRPGQSPRRLIYLVSKLDSGVPDRFTGSGSGTDFTLKISRVEAEDVGVYYCWQGTHFPFTFGGGTKVEIKR , please?
Reply | 1.05

Ask | Recorded IC50 (ratio compared to GY4 mAb) for humanized KFCC-GY4 antibody CSR01-VH4/VK3 (antibody, human IgG4, V domains shown, also called VH4/VK3 (GY4 variant); CSR01-VH4NK3) VH: EVQLVQSGAEVKKPGASVKVSCTASGFNIKDYYIHWVRQAPGQGLEWIGWIDPENGDIEYAPKFQGRATITADTSTDTAYMEFSSLRSEDTAVYYCLYQEGSWGQGTTVTVSS VL: DVVMTQSPLSLPVTLGQPASISCKSSQSLLNSDGKTYLNWLQQRPGQSPRRLIYLVSKLDSGVPDRFSGSGSGTDFTLKISRVEAEDVGVYYCWQGTHFPFTFGGGTKVEIKR , please?
Reply | 1.61

Ask | Recorded IC50 (ratio compared to GY4 mAb) for humanized KFCC-GY4 antibody CSR01-VH4/VK2 (antibody, human IgG4, V domains shown, also called VH4/VK2 (GY4 variant); CSR01-VH4NK2) VH: EVQLVQSGAEVKKPGASVKVSCTASGFNIKDYYIHWVRQAPGQGLEWIGWIDPENGDIEYAPKFQGRATITADTSTDTAYMEFSSLRSEDTAVYYCLYQEGSWGQGTTVTVSS VL: DVVMTQSPLSLPVTLGQPASISCKSSQSLLNSDGKTYLNWLQQRPGQSPRRLIYLVSKLDSGVPDRFTGSGSGTDFTLKISRVEAEDVGVYYCWQGTHFPFTFGGGTKVEIKR , please?
Reply | 1.39
